test: in vitro; conditions: human, hela cells, % viability
metric: viability at 28.5 h, 10 µM (%)

                                   molecule  display_unit  value_measured
0  CCOC(=O)CCCNC(=O)N1CCCC(CO)C1 (stereo not shown)             %             102
1  Cc1ccc(C(=O)C(C)OC(=O)c2ccc(NC(=O)c3ccccc3)cc2)cc1 (stereo not shown)             %             100
2  CN1CCN(/N=C/c2c(C(F)(F)F)[nH]n(-c3nc4ccccc4s3)c2=O)CC1             %            92.4
3  CCN1CCN(c2ccc(NC(=O)c3cccnc3)cc2Cl)CC1 [CBK266629C]             %            97.9
4                O=C(NC1Cc2ccccc2C1)c1cscn1             %            93.5
5  Cc1cc(Cl)c(S(=O)(=O)Nc2cccc(Br)c2)cc1OCC(N)=O             %             100
6     Cc1oc2nc(SCC(=O)NCc3cccnc3)nc(N)c2c1C             %             106
7          COCc1cccc(-c2nccnc2OCc2ccccn2)c1             %              96
8  COc1ccc(OC)c(NC(=O)c2cc(=O)[nH]c3ccccc23)c1             %            92.7
9       O=C(CN1CCC(c2ccc(F)cc2)CC1)N1CCCCC1             %             101
